Target: human SLC6A19 (Homo sapiens, UniProt Q695T7)
Construct: expressed in transfected cells
Sequence (Q695T7 1-634): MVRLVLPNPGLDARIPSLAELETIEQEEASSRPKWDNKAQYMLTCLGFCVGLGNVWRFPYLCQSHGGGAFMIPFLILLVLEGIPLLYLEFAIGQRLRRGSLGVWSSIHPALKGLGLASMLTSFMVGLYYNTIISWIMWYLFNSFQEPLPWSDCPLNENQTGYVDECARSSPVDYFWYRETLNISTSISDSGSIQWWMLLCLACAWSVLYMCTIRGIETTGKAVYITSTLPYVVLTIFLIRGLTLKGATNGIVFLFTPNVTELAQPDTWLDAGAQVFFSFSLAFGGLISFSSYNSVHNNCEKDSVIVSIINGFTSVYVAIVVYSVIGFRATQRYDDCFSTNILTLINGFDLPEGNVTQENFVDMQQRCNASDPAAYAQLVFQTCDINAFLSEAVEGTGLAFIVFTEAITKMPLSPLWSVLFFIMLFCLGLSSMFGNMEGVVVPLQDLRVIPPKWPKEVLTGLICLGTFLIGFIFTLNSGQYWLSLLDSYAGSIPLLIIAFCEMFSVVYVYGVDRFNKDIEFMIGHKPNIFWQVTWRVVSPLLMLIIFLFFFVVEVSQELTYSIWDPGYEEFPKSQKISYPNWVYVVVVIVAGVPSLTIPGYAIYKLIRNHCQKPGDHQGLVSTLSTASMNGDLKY
Sequence (Q9HBJ8 15-222 partner): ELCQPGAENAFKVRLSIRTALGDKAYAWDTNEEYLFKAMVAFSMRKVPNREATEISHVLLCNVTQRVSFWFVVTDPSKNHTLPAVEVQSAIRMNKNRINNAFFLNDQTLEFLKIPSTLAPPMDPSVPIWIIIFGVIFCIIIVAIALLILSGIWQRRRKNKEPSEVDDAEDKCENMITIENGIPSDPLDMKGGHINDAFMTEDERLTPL
Assay: Example B-1: L-[3H]leucine uptake, liquid scintillation, in CHO cells with doxycycline-inducible expression of human SLC6A19 and TMEM27
Format: cell-based
Settings: read-out: SLC6A19_Radioligand Uptake Assay IC50
Recorded metric: IC50 (µM)

> print(dat)
                    structure.smiles.string                               target.desc  uom  observed.value
1  CN(C(=O)NCc1cc2cc(Cl)ccc2[nH]1)[C@@H]1CCCN(C(=O)c2ccn(CC(F)(F)F)n2)C1  human SLC6A19 (Homo sapiens, UniProt Q695T7)   µM           0.232
2  CN(C(=O)NCc1cc2cc(Cl)ccc2[nH]1)[C@@H]1CCCN(C(=O)c2ccccn2)C1  human SLC6A19 (Homo sapiens, UniProt Q695T7)   µM           0.387

(P) Cc1nc(C(=O)N2CCC[C@@H](N(C)C(=O)NCc3cc4cc(Cl)ccc4[nH]3)C2)co1
(Q) CN(C(=O)NCc1cc2cc(Cl)ccc2[nH]1)[C@@H]1CCCN(C(=O)c2cnco2)C1
q: Could you tell me which of these two has the smaller IC50 figure? First: P Second: Q # respond with the chosen item's label
a: Q
(Q: 0.209 µM, P: 0.35 µM)

----------
Target: human SLC6A19 (Homo sapiens)
Construct: expressed in transfected cells
Sequence (Q695T7 1-634): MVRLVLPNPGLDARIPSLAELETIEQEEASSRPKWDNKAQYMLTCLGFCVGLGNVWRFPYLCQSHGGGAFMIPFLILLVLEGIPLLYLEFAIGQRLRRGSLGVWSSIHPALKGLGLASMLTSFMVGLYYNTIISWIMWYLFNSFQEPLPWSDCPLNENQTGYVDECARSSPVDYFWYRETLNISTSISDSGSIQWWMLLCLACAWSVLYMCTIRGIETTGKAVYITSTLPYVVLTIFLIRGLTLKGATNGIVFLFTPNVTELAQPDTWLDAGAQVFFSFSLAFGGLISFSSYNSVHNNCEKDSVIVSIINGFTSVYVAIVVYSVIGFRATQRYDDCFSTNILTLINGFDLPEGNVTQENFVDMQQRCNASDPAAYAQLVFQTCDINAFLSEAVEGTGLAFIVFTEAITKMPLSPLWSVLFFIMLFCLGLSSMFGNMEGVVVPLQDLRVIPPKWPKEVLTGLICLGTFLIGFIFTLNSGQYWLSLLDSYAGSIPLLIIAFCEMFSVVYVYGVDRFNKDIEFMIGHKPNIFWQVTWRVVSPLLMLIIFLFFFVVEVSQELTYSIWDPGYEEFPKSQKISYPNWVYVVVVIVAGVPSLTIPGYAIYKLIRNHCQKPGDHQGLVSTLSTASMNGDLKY
Sequence (Q9HBJ8 15-222 partner): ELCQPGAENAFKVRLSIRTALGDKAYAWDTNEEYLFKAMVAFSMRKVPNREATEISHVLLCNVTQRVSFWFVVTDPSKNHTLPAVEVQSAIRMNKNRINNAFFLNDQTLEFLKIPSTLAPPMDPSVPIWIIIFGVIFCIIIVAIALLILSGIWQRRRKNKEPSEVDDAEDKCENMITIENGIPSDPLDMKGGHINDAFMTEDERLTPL
Test: Example B2: 13C6,15N-isoleucine uptake, RapidFire mass spectrometry, in CHO cells with doxycycline-inducible expression of human SLC6A19 and TMEM27
Type: cell-based
Details: read-out: SLC6A19_RapidFire Uptake Assay IC50
pIC50: −log10 of the molar value.
Recorded metric: pIC50

See these solved cases before continuing.
> print(dat)
                                    compound  recorded.metric  observed.value
 1  CC(=O)N1CCC[C@@H](N(C)C(=O)NCCc2ccc(F)c(-c3cc4ccccc4[nH]3)c2)C1 [Compound 244]            pIC50            5.15
 2  CN(C(=O)NCc1cc2cc(Cl)ccc2[nH]1)[C@@H]1CCCN(C(=O)c2cc(CO)on2)C1 [Compound 47]            pIC50            5.61
 3  CC(=O)N1CCC[C@@H](N(C)C(=O)NCc2cc3cc(Cl)cc(C)c3[nH]2)C1 [Compound 227]            pIC50            6.49
 4  CN(C(=O)NCc1cc2cc(Cl)ccc2[nH]1)[C@@H]1CCCN(C(=O)Cn2ccccc2=O)C1 [Compound 81]            pIC50            5.85
 5  CC(=O)N1CCC[C@@H](N(C)C(=O)NCc2cc3ccc(OCc4cncs4)cc3[nH]2)C1 [Compound 136]            pIC50            5.40
 6  CN(C(=O)NCc1cc2cc(Cl)ccc2[nH]1)[C@@H]1CCCN(C(=O)CCC(N)=O)C1 [Compound 46]            pIC50            5.91
 7  CN(C(=O)NCc1cc2cc(Cl)ccc2[nH]1)[C@@H]1CCCN(C(=O)COc2ccc(=O)[nH]n2)C1 [Compound 83]            pIC50            5.32
 8  CN(C(=O)NCc1cc2cc(Cl)ccc2[nH]1)[C@@H]1CCCN(C(=O)CC2CC2)C1 [Compound 49]            pIC50            6.43
 9  Cc1cnc2ncc(C(=O)N3CCC[C@@H](N(C)C(=O)NCc4cc5cc(Cl)ccc5[nH]4)C3)n2c1 [Compound 102]            pIC50            5.74
10  Cc1ncoc1C(=O)N1CCC[C@@H](N(C)C(=O)NCc2cc3cc(Cl)ccc3[nH]2)C1 [Compound 27]            pIC50            6.09

(P) CN(C(=O)NCc1cc2cc(Cl)ccc2[nH]1)[C@@H]1CCCN(C(=O)c2cnnn2C)C1 [Compound 26]
(Q) COc1ncc(C(=O)N2CCC[C@@H](N(C)C(=O)NCc3cc4cc(Cl)ccc4[nH]3)C2)cc1F [Compound 87]
(R) CCOc1cc2[nH]c(CNC(=O)N(C)[C@@H]3CCCN(C(C)=O)C3)cc2cc1Cl [Compound 155]
q: Falling order of pIC50, please. List the labels, following the order given in the request.
a: R, Q, P

(P) C[C@@H](O)C(=O)N1CCC[C@@H](N(C)C(=O)NCc2cc3cc(Cl)ccc3[nH]2)C1 [Compound 186]
(Q) Cc1cc(C(=O)N2CCC[C@@H](N(C)C(=O)NCc3cc4cc(Cl)ccc4[nH]3)C2)nn1C [Compound 236]
(R) CC(=O)N1CCC[C@@H](N(C)C(=O)NCc2cc3[nH]cc(C)c3cc2C)C1 [Compound 233]
q: Could you please order the items by pIC50, going from the lowest number to the highest? List the labels, following the order given in the request.
a: R, P, Q

(a) COCC(C)C(=O)N1CCC[C@@H](N(C)C(=O)NCc2cc3cc(Cl)ccc3[nH]2)C1 (stereo partly shown) [Compound 82]
(b) CN(C(=O)NCc1cc2cc(Cl)ccc2[nH]1)[C@@H]1CCCN(C(=O)C(O)CO)C1 (stereo partly shown) [Compound 110]
q: Of the two listed items, which has the higher pIC50? First: a Second: b # respond with the chosen item's label
a: a
(a: 5.42, b: 5.07)
